test: NCI Yeast Anticancer Drug Screen. Data for the rad52 strain (AID 147); details: S. cerevisiae rad52 mutant growth inhibition; at 11.0 µM
This is part of a sample that, as a whole, favours compounds with a hit. Of some 79,000 tested, about 15% had one in any assay. Calls of active or inactive are those of the source. No stated cut-off is given here; in the data, active means growth inhibition above about 70%; inactive means the rest.
Result category, one only: active, inactive

Answered cases to consult:
compound=c1ccc2c(c1)sc1cc3ccncc3cc12 classification=inactive
compound=C#CCCCc1ccccc1 classification=inactive
compound=CCN(CC)C(C)(C)C(=O)/C=C/c1ccccc1 classification=inactive

IN: Each compound tested received a call. Report the one for O=C1NC(=O)C2C3C=CC(C3)C12 (stereo not given) .
OUT: inactive

IN: For this compound, state the assay outcome: COC1=CC(=O)C2C(C1=O)C(c1ccc(Cl)cc1)[C@@H]2C (stereo not given in full)
OUT: active

IN: Hi team, can someone confirm the assay call for COC(=O)CCNc1c2ccccc2nc2cccc([N+](=O)[O-])c12 ?
OUT: active

IN: So what was the verdict on O=C(NCCCCNCCCNC(=O)c1cc(-c2ccccc2)nc2ccccc12)c1cc(-c2ccccc2)nc2ccccc12 in this test?
OUT: inactive

IN: Recorded test call requested for Cc1ccc2ccc3cccc4ccc1c2c34
OUT: inactive

IN: For S=C(Nc1ccc(Cl)cc1)SC1CCCCC1 , what call appears in the results of this test?
OUT: inactive

IN: In this assay, the call recorded for CCOc1ccc2c(c1)c(CC(=O)O)cn2C was what?
OUT: inactive

IN: Assay outcome for O=CC=C(c1ccccc1)c1ccccc1 : what was it?
OUT: inactive

IN: Tell me the recorded outcome of this test for Oc1ccc(NCn2c(=S)sc3ccccc32)cc1 .
OUT: inactive

IN: Recorded test call requested for Cc1cc(O)cc(O)c1N=Nc1ccc([N+](=O)[O-])cc1
OUT: inactive

IN: How did this test come out for CC1CCN(CCC(=O)c2ccc(Cl)cc2)CC1 ?
OUT: inactive

IN: Hello, I am checking results. What call was entered for O=C(c1ccc(Cl)cc1Cl)C(Cl)Cl ?
OUT: inactive

IN: Please state the recorded outcome for this compound: CC(C)/C(Cl)=N\OC(=O)Nc1ccc(F)cc1
OUT: inactive

IN: Status in this test for Cc1nn(-c2cc(Cl)ccc2[N+](=O)[O-])c(C)c1Cl ?
OUT: inactive

IN: Recorded call for O=Nc1c(NO)ccc2nn(-c3ccccc3)nc12 ?
OUT: active

IN: Query: recorded result category for c1ccc2c(c1)sc1nc3ccncc3nc12 in this test
OUT: inactive

IN: Returns: the outcome recorded for N#Cc1ccc(C2NN=CC23C(=O)c2ccccc2OC3c2ccccc2)cc1 (stereo not given) in this assay.
OUT: inactive

IN: Per the records of this test, what outcome belongs to C=C(CN(C)C)C(=O)c1cc(C)ccc1C ?
OUT: active

IN: For this compound, state the assay outcome: Cc1ccc(-n2cc(-c3ccc(Cl)cc3)c(C#N)c2N)cc1
OUT: inactive

IN: Test call, this compound: Cc1c(C(Cc2ccccc2N(C)C(=O)/C=C\C(=O)O)c2c[nH]c3ccccc23)c2ccccc2n1C (stereo not given)
OUT: inactive

IN: # outcome recorded in this test, key = COc1ccc(/C=C2\SC(=S)N(/C=C/c3nc4ccccc4[nH]c3=O)C2=O)cc1OC
OUT: inactive

IN: Entry CC(=O)Oc1cc(-c2cc(OC(C)=O)c(OC(C)=O)c3ccccc23)c2ccccc2c1OC(C)=O : call = ?
OUT: inactive
